Listed below: IC50 values for each entry.
# Test system: U-87 MG
# PROTOCOL_NOTES: Cytotoxicity against human U87MG cells after 72 hrs by sulforhodamine B assay
# Format: functional, cell-based, U-87MG ATCC

These recorded examples may help you get a feel for the data.
[[record]]
structure = "C=Cc1ccc(OC(=O)c2ccc(O)c(N)c2SC[C@@H](NC(C)=O)C(=O)O)cc1"
recorded_endpoint = "IC50"
result = "2200 nM"

[[record]]
structure = "COc1cccc2c1C(=O)c1c(O)c3c(c(O)c1C2=O)C[C@@](O)(C(=O)CO)C[C@@H]3O[C@H]1C[C@H](N)[C@H](O)[C@H](C)O1"
recorded_endpoint = "IC50"
result = "400 nM"


Turning to the following compound.
Q: Report IC50 on U-87 MG for this entry: "C=Cc1ccc(OC(=O)c2ccc(O)c(NC(C)=O)c2)cc1"
A: 10200 nM

Reference for the values: ChEMBL document CHEMBL4118057
